Test: Pharmacokinetics of tolbutamide in control, APE-pretreated and andrographolide-pretreated rats
Format: in vivo, Sprague-Dawley rats
Details: male, Sprague-Dawley, rat, plasma; control rats (methyl cellulose vehicle for 5 days); tolbutamide 20 mg/kg oral
Description: Seven-week-old male Sprague-Dawley rats cannulated in the jugular vein were purchased from the Bio LASCO Experimental Animal Center (Taipei, Taiwan). […] The HPLC system consisted of an Agilent 1100 series LC System (Palo Alto, CA) and an Agilent Zorbax Eclipse XDB-C8 column (3 μm, 3.0 mm × 150 mm), interfaced to an Agilent MSD mass spectrometer equipped with an electrospray ionization source. […] The positive ion of the testing compound was selected, and the peak size was measured. […]
OBSERVABLE: MRT (h)

[
  {
    "COMPOUND": "CCCCNC(=O)NS(=O)(=O)c1ccc(C)cc1 [tolbutamide]",
    "OBSERVABLE": "MRT",
    "MEASUREMENT": 7.9
  }
]

###

Assay: Pharmacokinetics of tolbutamide in control, APE-pretreated and andrographolide-pretreated rats
Format: in vivo, Sprague-Dawley rats
Settings: male, Sprague-Dawley, rat, plasma; control rats (methyl cellulose vehicle for 5 days); tolbutamide 20 mg/kg oral; read-out: C max of tolbutamide

[
  {
    "COMPOUND": "CCCCNC(=O)NS(=O)(=O)c1ccc(C)cc1 [tolbutamide]",
    "UNITS TEXT": "µg/mL",
    "Cmax": 151
  }
]
